Hi there, I'd appreciate the recorded folding stability dG unfold for every entry that follows.
# TEST NAME: folding stability dG unfold from trypsin proteolysis; higher = more stable
State the answer as a number, implicitly in kcal/mol.

For GPEVLVETFVDPETGRVVVRVYFPEPDRLVLAVGERGGDGVRVLVVEYEADPLEPRFAEFEFPALPEGFDES [r1_404_TrMRF] , what is its reported folding stability dG unfold? 2.52

For SAGGSAMYKVEVTATTSSSSTPYPLEMDFETEEEAKERVKKYLEEKYGDPISSIETKIEPVEPGLESAGGSA [r15_670_JUSTAS] , what is its reported folding stability dG unfold? -0.314

For SAGGSAGGSAGGVPEDVIMSPVSTTLVEKEVLSTEVTPEGAPKTVEKVLIVEKTLEPLLSAGGSAGGSAGGS [r10_758_JUSTAS] , what is its reported folding stability dG unfold? 0.0499

For SKVRELLREIARPHGMPITDVKVEPPPDGWHKVTFQIQFPMKDPNGQPMRRMTFPATITVRNGKITEITISA [r9_519_TrROS] , what is its reported folding stability dG unfold? 1.54

For SAGGSAGGSAGGSKKEKYYLVTRIEVEVNGKKYPLGSKLPKNLPPGAKIKIETRIVKLDSAGGSAGGSAGGS [r4_436_TrROS_Hall] , what is its reported folding stability dG unfold? 2.35

For SAGGSAGGSSVLEVDPETGITVAVQDPSTGRYYVRNPEGEIREFDSPEEIREAFGRPVNFKTAPSAGGSAGG [r6_753_JUSTAS] , what is its reported folding stability dG unfold? 0.559

For SAGGSAGGSAGGGPDATPVTTTYVDLNLTPVSTETDPETGAVTVTYKLPGETITVTLPASAGGSAGGSAGGS [r10_962_JUSTAS] , what is its reported folding stability dG unfold? -0.629
